- Experimental System: protein kinase
- Protocol Description: HTS ATP-utilizing enzyme assay, off-chip mobility-shift format (Caliper HTS 250)
- Assay type: biochemical, human
- Measurement Setup: kinase(s) for which the compound exhibits protein kinase inhibitory activity; test compound 10 μM; active = greater than three-sigma from the mean activity of inactive compounds
Readout Label: Kinase

Below, 6 molecules whose answers are already recorded.
INSERT INTO measurements (record_smiles, val) VALUES
  ('CCCn1c(SCC(=O)c2ccc3c(c2)OCCO3)nnc1-c1ccco1', 'DYRK2'),
  ('Oc1cc2ccccc2cc1-c1nnc(S)n1Cc1ccco1', 'AURORA-A'),
  ('CCn1c(COc2ccc(Cl)c(C)c2)nnc1SCC#N', 'AURORA-A'),
  ('CCc1ccc(OCc2nnc(SCC#N)n2CC)cc1', 'AURORA-A'),
  ('COCCCn1c(C)nnc1SCC(=O)Nc1ccccc1[N+](=O)[O-]', 'FYN'),
  ('COc1ccc(NCc2nnc(SCC(=O)N3c4ccccc4Sc4ccccc43)n2-c2ccccc2)cc1', 'PDGFRR-α');

Report Kinase for CCn1c(Cc2ccccc2)nnc1SCC(=O)N1CCCc2ccccc21 please.
FYN

Same read-out for Cc1ccc(-n2c(SCC(=O)CC(=O)Nc3ccccc3)nnc2-c2cccnc2)cc1 ?
AURORA-A

Same read-out for COc1ccc(NCc2nnc(SCC(=O)Nc3ccccc3C(F)(F)F)n2-c2ccccc2)cc1 ?
PDGFRR-α

Same read-out for C=CCn1c(S)nnc1COc1ccc(Cl)cc1 ?
GSK3-α

Same read-out for FC(F)(F)c1cccc(NCc2nnc(S)n2-c2ccccc2)c1 ?
GSK3-α

Same read-out for COc1ccc(OCc2nnc(SCC(=O)Nc3ccc(C)cc3Br)n2-c2ccccc2)cc1 ?
CDK1

Same read-out for O=C(CSc1nnc(-c2ccncc2)n1Cc1ccco1)NCc1ccco1 ?
FYN

Same read-out for COc1ccccc1OCc1nnc(S)n1C ?
GSK3-α

Same read-out for COc1ccccc1-n1c(SCC(=O)OCc2ccccc2)nnc1-c1ccccc1O ?
KIT

Same read-out for COc1ccc(NCc2nnc(SCC(=O)Nc3ccccc3C(=O)O)n2-c2ccc(OC)cc2)cc1 ?
FYN

Same read-out for Cn1c(SCC(=O)NCc2ccco2)nnc1-c1ccc(NC(=O)c2ccccc2)cc1 ?
CHEK2

Same read-out for COCCn1c(SCC(=O)N2c3ccccc3Sc3ccccc32)nnc1-c1cc2ccccc2cc1O ?
DAPK1

Same read-out for COc1ccc(-n2c(Cc3ccccc3)nnc2SCC(=O)Nc2ccccc2)cc1 ?
CHEK2

Same read-out for Cn1c(SCC(=O)N(CC(=O)NC2CCCCC2)C2CCCC2)nnc1-c1ccc(C(C)(C)C)cc1 ?
DAPK1

Same read-out for Sc1nnc(CNc2ccc(Cl)cc2)n1Cc1ccccc1 ?
AURORA-A
